These entries and their values trace back to PubChem BioAssay (NCI).

Readings of growth for the listed compounds
- Tested on: PC-3 prostate
- testDetails: NCI-60 one-dose screen, 48 h (100 = growth as untreated, 0 = no growth, -100 = all killed)
- testConditions: 10 µM unless noted
Compounds without any hit were thinned out: in the full panel of roughly 83,000, 20% have a hit.
property: growth (%)

chemSmiles: O=C(CSc1nc2ccccc2c(=O)[nH]1)NNC(=O)c1ccccc1Cl
targetUnderTest: PC-3 prostate
units: %
assayResult: 123

chemSmiles: COc1ccc2[nH]c(=O)c(CSc3ccccc3Nc3nccc(-c4ccc(C(F)(F)F)cc4)n3)cc2c1
targetUnderTest: PC-3 prostate
units: %
assayResult: 3.44

chemSmiles: CC(C)(C)OC(=O)N1C/C(=C\c2ccc(F)cc2)C(=O)/C(=C/c2ccc(F)cc2)C1
targetUnderTest: PC-3 prostate
units: %
assayResult: -31.1

chemSmiles: CCCCCCCOc1ccc(S(=O)(=O)Nc2ccc(C)c(F)c2C(=O)O)cc1
targetUnderTest: PC-3 prostate
units: %
assayResult: 91

chemSmiles: CCc1ccccc1NC(=O)N/C(N)=N/c1nc2ccccc2s1
targetUnderTest: PC-3 prostate
units: %
assayResult: 21.8

chemSmiles: COc1cc(/C=C/C(=O)c2cnn(-c3cc(=O)[nH]c4ccccc34)c2C)cc(OC)c1OC
targetUnderTest: PC-3 prostate
units: %
assayResult: 43.3

chemSmiles: COc1cc(CNC(=O)C[C@H](C)CCC=C(C)C)ccc1OCc1cn(-c2ccc(Cl)c(Cl)c2)nn1
targetUnderTest: PC-3 prostate
units: %
assayResult: 65.9

chemSmiles: COc1ccc(N=Nc2c(N)nn3c(-c4cc5cc(Br)ccc5oc4=O)ccnc23)cc1
targetUnderTest: PC-3 prostate
units: %
assayResult: 44.9

chemSmiles: O=C(Cc1c(-c2ccccc2[N+](=O)[O-])n(-c2ncnc3c2c(-c2ccccc2)c(-c2ccccc2)n3Cc2ccccc2)[nH]c1=O)c1ccc(Cl)c(Cl)c1
targetUnderTest: PC-3 prostate
units: %
assayResult: 8.7

====

- Tested on: NCI-H23 lung
- testDetails: NCI-60 one-dose screen, 48 h (100 = growth as untreated, 0 = no growth, -100 = all killed)
- testConditions: 10 µM unless noted
- Protocol: Growth inhibition of the NCI-H23 human Non-Small Cell Lung tumor cell line is measured as a screen for anti-cancer activity. Cells are grown in 96 well plates and exposed to the test compound for 48 hours. Compounds are tested at a single concentration, which is 10^-5 M for most compounds. The reported endpoint is percent growth (GI% or GIPRCNT), where numbers from 0 - 100% represent growth inhibition, and numbers from -100% - 0 represent cell death. […]
Compounds without any hit were thinned out: in the full panel of roughly 83,000, 20% have a hit.

molecule: CC1=C(C(=O)Nc2ccccc2)C(c2ccc3ccccc3c2)n2c(nc3ccccc32)N1 (centres undefined)
growth / %: 73.3
--
molecule: CC(=O)C[n+]1cccc2c3ccccc3ccc21
growth / %: 85.4
--
molecule: COc1ccc(NC(=O)Cn2c(/C=C/c3cccc(Br)c3)nc3ccccc3c2=O)cc1
growth / %: 59.3
--
molecule: Cc1ccc(/C=C/C(=O)c2ccc(S(=O)(=O)NCCNc3nc(N(C)C)nc(N4CCOCC4)n3)cc2)cc1
growth / %: 95
--
molecule: COc1ccc(-c2nc3ccc(-c4nnc(SCc5ccccc5)o4)cc3[nH]2)cc1
growth / %: 8.09
--
molecule: Cc1nn(-c2ccccc2)c2nc(C)n(C(=O)N/N=C/c3ccccc3)c(=O)c12
growth / %: 99.7
--
molecule: CN(C)c1nc(NCCNS(=O)(=O)c2ccc(C(=O)/C=C/c3ccc(Cl)cc3)cc2)nc(N2CCOCC2)n1
growth / %: 9.4
--
molecule: CCC1(OC(=O)c2ccccc2SSCCOC(=O)CCCCC2SCC3NC(=O)NC32)C(=O)OCc2c1cc1n(c2=O)Cc2cc3ccccc3nc2-1 (centres undefined)
growth / %: 15.4
--
molecule: O=C1N/C(=N\c2nccs2)S/C1=C\c1ccc([N+](=O)[O-])cc1
growth / %: 32.7

====

Readings of growth for the listed molecules
- System: NCI/ADR-RES ovarian
- testDetails: NCI-60 one-dose screen, 48 h (100 = growth as untreated, 0 = no growth, -100 = all killed)
- testConditions: 10 µM unless noted
- Protocol: Growth inhibition of the NCI/ADR-RES human […] tumor cell line is measured as a screen for anti-cancer activity. Cells are grown in 96 well plates and exposed to the test compound for 48 hours. Compounds are tested at a single concentration, which is 10^-5 M for most compounds. The reported endpoint is percent growth (GI% or GIPRCNT), where numbers from 0 - 100% represent growth inhibition, and numbers from -100% - 0 represent cell death. For example, a value of 40 represents 60% growth inhibition. […]
The panel holds about 83,000 compounds, 20% with a hit somewhere; the sample as a whole holds those more often.

molecule: CN(C)c1nc(NCCNS(=O)(=O)c2ccc(C3=Nc4c(N)nc(N)nc4NC(c4ccc(C(F)(F)F)cc4)C3)cc2)nc(N2CCOCC2)n1 (configuration not stated)
growth, %: 91.8
--
molecule: O=C(Nc1ccc(-c2ccc3c(c2)NC(=O)/C3=C\c2ccc[nH]2)cc1)Nc1ccc(Cl)c(C(F)(F)F)c1
growth, %: 51.7
--
molecule: O=C(N/N=C/c1ccc(B(O)O)s1)c1[nH]c2ccc(Br)cc2c1-c1ccccc1
growth, %: -33.9
--
molecule: COc1ccc(-c2cc(C(=O)N=Nc3c(O)[nH]c4ccc(Cl)cc34)c3ccccc3n2)cc1OC
growth, %: 98.2
--
molecule: O=C(NN1C(=O)/C(=C/C=C/c2ccc([N+](=O)[O-])o2)SC1=S)c1ccncc1
growth, %: -4.3
--
molecule: Nc1cc(-c2c[nH]c3ccc(F)cc23)nc2cc(-c3c[nH]c4ccccc34)nn12
growth, %: 10.7
--
molecule: COc1ccc(NC(=O)Cn2c(/C=C/c3ccc([N+](=O)[O-])cc3)nc3ccccc3c2=O)cc1
growth, %: 39
--
molecule: C[C@H]1[C@@H](CC(=O)N[C@@H](Cc2coc3ccccc23)B(O)O)O[C@@H]2OC3(C)CC[C@H]4[C@H](C)CC[C@@H]1[C@@]24O3
growth, %: 19.5
--
molecule: COc1ccc(-c2cc(C(=O)Oc3ccc(C=O)cc3OC)nn2-c2ccc(S(C)(=O)=O)cc2)cc1
growth, %: 101
--
molecule: COc1cc(C2CC(c3ccc(C(F)(F)F)cc3)=Nc3c(N)nc(N)nc3N2)ccc1Oc1nc(Nc2ccc(F)cc2)nc(N(C)C)n1 (configuration not stated)
growth, %: 37
--
molecule: COc1ccc(NC(=O)CSc2nnc(-c3ccc(-c4nc5ccccc5[nH]4)cc3)o2)cc1
growth, %: 50.1
--
molecule: Cc1ccc(-c2cc(-c3ccccc3)[nH]c(=O)c2C#N)cc1
growth, %: 82.3
--
molecule: Cc1ccc(Nc2nnc(-c3c[nH]c4ccccc34)o2)c(C)c1
growth, %: -29.2
--
molecule: CC[C@@]12CC(C(=O)OC)=C3Nc4cc5c(cc4[C@@]34CCN(C[C@H]3O[C@H]31)[C@@H]24)[C@@H]1[C@H](O5)[C@@H](O)[C@@]2(CC)CC(C(=O)OC)=C3Nc4cc(O)ccc4[C@@]34CCN1[C@@H]24
growth, %: 6.74
--
molecule: CCC(=O)c1c2c(c3ccc4c5ccccc5ccc4n13)C(=O)c1ccccc1C2=O
growth, %: 90.8
--
molecule: COc1ccc(N=Nc2c(N)nn3c(-c4ccc(OC)c(OC)c4)ccnc23)cc1
growth, %: 79.2
--
molecule: O=C(c1ccc(O)cc1)C1[C@H](c2ccccc2Br)[C@@H](c2ccccc2)NC12C(=O)Nc1ccccc12 (some centres not stated)
growth, %: 53.1

====

- Tested on: IGROV1 ovarian
- testDetails: NCI-60 one-dose screen, 48 h
- testConditions: 10 µM unless noted
About 83,000 compounds went through this panel and 20% of them were active in at least one assay; those are over-represented in the sample as a whole. Activity calls are given as the source filed them. How the source made its calls: active means growth percent below 10; inactive means the rest.
Outcome codes: yes (1) for active, no (0) for inactive

compound: CCCCCCCCCCCCCCCCCC(=O)Nc1ccc(OC)cc1
answerLabel: no (0)
//
compound: COc1ccc2c(c1)C(=O)N(C)C2C1c2c(cc3c(c2OC)OCO3)CCN1C (centres undefined)
answerLabel: no (0)
//
compound: O=C(COc1ccc(/C=C2/C(=O)Nc3ccc(Cl)cc32)cc1)Nc1ccc(Br)cc1
answerLabel: yes (1)
//
compound: Cc1ccc(C(=O)Nc2cc(-n3ccnc3)cc(C(F)(F)F)c2)cc1-n1cc(-c2cnc3cccnn23)nn1
answerLabel: no (0)
//
compound: N#CC1=C(c2cccs2)Nc2c(c(-c3ccccc3)nn2-c2ccccc2)C12C(=O)Nc1ccccc12 (centres undefined)
answerLabel: no (0)
//
compound: COc1ccc(-c2cc(-c3cc(OC)c(OC)c(OC)c3)[nH]c(=O)c2C#N)cc1
answerLabel: no (0)
//
compound: C=CCSc1nnc(-c2c(C)nc3sccn23)o1
answerLabel: no (0)
//
compound: COc1ccc(NC(=O)CSc2nnc(-c3ccc(-c4nc5ccccc5[nH]4)cc3)o2)cc1
answerLabel: no (0)
//
compound: CC1=NN(C2=NC(=O)C(CC(=O)Nc3ccccc3C(F)(F)F)S2)C(c2ccc(N(C)C)cc2)C1 (centres undefined)
answerLabel: no (0)
